- MEASUREMENT PROTOCOL: Resistance to Poly (ADP-Ribose) Polymerase inhibitor: Gene Identification via Genome-wide siRNA Screen
- STATED CONDITIONS: mouse BRCA2 R2336H ES cells, olaparib, CellTiter-Glo viability
Out of some 52,000 sequences screened, about 210 (0.4%) were called active.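 How the source made its calls: active means gene whose silencing raises cell survival under the drug, median off-target-corrected z-score across its silencing RNAs 2 or more; inactive means the rest.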 Many of the other results were omitted from the sample, so actives are more common in it than they were.
Select the matching outcome among active, inactive

Before answering, review these 5 worked examples.
>>> qualitative_label("GCCAGCAACAGGAUGAUAUTT against Prkwnk1")
"inactive"
>>> qualitative_label("CCACAAAGAAUGCAUUACUTT against BC022146")
"inactive"
>>> qualitative_label("GGGACAGUCUUCAGUGACATT against 0610037L13Rik")
"inactive"
>>> qualitative_label("CCUUCUGGCCCAGACGAUUTT against Pxmp2")
"inactive"
>>> qualitative_label("GGAAGAGAGGACCAUGAAGTT against Usp18")
"active"

**Query** Tell me the recorded outcome of this test for CCUGGCUAAUGACUAGCUCTT against D730046L02Rik .
**Result** inactive

**Query** Assay outcome for GCCAUUAAUCUCACAUGUATT against A930001N09Rik : what was it?
**Result** inactive

**Query** Which outcome was assigned to UCUCCUUCCUAACUUCAACTT against E030010A14 in this test?
**Result** inactive

**Query** Write down the call the test reported for this sequence. Item: GGACCUAUUUCUCUGCUCCTT against E330026B02Rik
**Result** inactive

**Query** Check the results log: what was the call for GGCCAGGAGAAGAAGAUACTT against E130014J05Rik ?
**Result** active

**Query** Each sequence tested received a call. Report the one for GCAAUGAACUAUGAAGGCATT against Npm1 .
**Result** active

**Query** // outcome(item) with item = GGAUUUGGCCAACUCACCCTT against Acpp
**Result** active

**Query** How did this test come out for GGCCAUCGAACUCAAUCUCTT against 2810002D13Rik ?
**Result** inactive

**Query** Assay result, entry GGACUUGUCUUUGACACGCTT against Nt5c2 — outcome?
**Result** inactive

**Query** Each sequence tested received a call. Report the one for GGGCAUAGAGUCUCAAACUTT against Ptger1 .
**Result** inactive

**Query** Per the assay record, what outcome was assigned to GGAUAAAUGGUUCUAGAAATT against 3110006P09Rik ?
**Result** active

**Query** So what was the verdict on GCACAGUGGAUGCAAUCAGTT against Btbd1 in this test?
**Result** inactive

**Query** Query: recorded result category for GCGGGCAAUGCCUUAAAAGTT against D16Ertd607e in this test
**Result** inactive

**Query** Query: recorded result category for GGAGAAACUUCAACUCUUATT against Resp18 in this test
**Result** inactive

**Query** Recorded call for GGUUAGGUUGAUGAAUAAGTT against Eif4ebp2 ?
**Result** inactive

**Query** Please indicate how the test categorized GCUUUUGAUAUUCCACGUUTT against Pole2 .
**Result** inactive

* * *

- MEASUREMENT PROTOCOL: Resistance to Poly (ADP-Ribose) Polymerase inhibitor: Gene Identification via Genome-wide siRNA Screen
- STATED CONDITIONS: mouse BRCA2 R2336H ES cells, olaparib, CellTiter-Glo viability
Hit rate of the full screen: of about 52,000 sequences, about 210 (0.4%) were called active.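 How the source made its calls: active means gene whose silencing raises cell survival under the drug, median off-target-corrected z-score across its silencing RNAs 2 or more; inactive means the rest.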 This excerpt belongs to a sample that is enriched for actives.
Hi! Could you answer with just one of these? active, inactive

Consider the following illustrative entries.
>>> qualitative_label("GCACCAUGUCAGGAAGUGUTT against B230315M08Rik")
"active"
>>> qualitative_label("GCACAAGAGGUAUCCUUGCTT against A630038D02")
"inactive"
>>> qualitative_label("GGCCAUCAGAUAGUUUAAUTT against AW551984")
"inactive"
>>> qualitative_label("GGAAGAGAUGGAAUUAUUGTT against Sh3bp5")
"inactive"
>>> qualitative_label("CCCAGCUAUGCGAUCUUAATT against 1300003B13Rik")
"inactive"
>>> qualitative_label("GGAGAUCGUGCAAUUCAUUTT against Rasl2-9")
"inactive"

**Query** Could you kindly confirm the outcome this assay logged for GGGCAGAGUGAUGUUGUCATT against Gsdmdc1 ?
**Result** inactive

**Query** What did the test return for GCCUGUUCCGCCAUUCAUGTT against Fliih ?
**Result** inactive

**Query** Answer briefly: the call reported for GGAAAAGGAGGUGGUACUGTT against Agc1 in this assay.
**Result** inactive
